Give measured SK-Br-3 pAkt (S473) IC50 for each item. Keep answers brief.
# TESTED_TARGET: Human HER3, endogenous, on human cancer cell lines (SK-Br-3, MCF7, BT-474) (human, UniProt P21860 20-1342)
# Sequence (P21860 20-1342): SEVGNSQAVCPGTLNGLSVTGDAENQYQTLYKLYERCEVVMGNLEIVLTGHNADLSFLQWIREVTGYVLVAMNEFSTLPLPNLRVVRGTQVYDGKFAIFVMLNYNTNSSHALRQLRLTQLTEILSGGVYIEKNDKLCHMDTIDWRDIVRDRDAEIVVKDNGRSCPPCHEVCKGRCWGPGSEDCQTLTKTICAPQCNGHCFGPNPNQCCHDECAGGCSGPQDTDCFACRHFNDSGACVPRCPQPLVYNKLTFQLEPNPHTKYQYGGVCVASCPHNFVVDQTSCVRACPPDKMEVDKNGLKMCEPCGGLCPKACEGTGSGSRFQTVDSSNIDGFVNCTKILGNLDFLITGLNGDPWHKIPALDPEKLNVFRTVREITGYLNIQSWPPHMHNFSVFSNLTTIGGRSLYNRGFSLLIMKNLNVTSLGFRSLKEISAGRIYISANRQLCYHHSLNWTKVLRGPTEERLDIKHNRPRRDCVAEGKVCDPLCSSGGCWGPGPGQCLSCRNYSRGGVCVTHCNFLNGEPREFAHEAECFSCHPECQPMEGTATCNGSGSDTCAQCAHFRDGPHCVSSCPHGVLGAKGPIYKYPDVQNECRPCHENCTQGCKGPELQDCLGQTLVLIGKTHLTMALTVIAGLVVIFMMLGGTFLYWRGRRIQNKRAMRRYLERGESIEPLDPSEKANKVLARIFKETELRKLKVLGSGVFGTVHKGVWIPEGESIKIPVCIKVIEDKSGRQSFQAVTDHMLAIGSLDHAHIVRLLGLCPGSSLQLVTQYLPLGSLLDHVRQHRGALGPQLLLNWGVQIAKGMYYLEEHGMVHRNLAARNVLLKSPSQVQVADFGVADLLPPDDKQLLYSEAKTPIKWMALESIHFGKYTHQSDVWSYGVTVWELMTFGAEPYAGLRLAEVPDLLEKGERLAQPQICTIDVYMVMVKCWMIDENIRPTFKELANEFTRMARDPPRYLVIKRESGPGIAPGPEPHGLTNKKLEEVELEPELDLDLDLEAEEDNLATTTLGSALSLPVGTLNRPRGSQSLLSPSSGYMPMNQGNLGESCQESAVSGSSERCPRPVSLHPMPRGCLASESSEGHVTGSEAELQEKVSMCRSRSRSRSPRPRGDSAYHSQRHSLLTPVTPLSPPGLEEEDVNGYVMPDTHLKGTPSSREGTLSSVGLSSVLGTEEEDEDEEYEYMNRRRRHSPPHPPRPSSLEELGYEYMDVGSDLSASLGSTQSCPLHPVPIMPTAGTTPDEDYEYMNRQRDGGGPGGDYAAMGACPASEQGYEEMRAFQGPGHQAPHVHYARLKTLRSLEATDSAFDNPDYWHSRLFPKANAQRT
# PROCEDURE_SUMMARY: cell-based or functional assay
Dear colleague, please return just the value in pM, with no unit written.

Please fill in: SK-Br-3 pAkt (S473) IC50 reported for MOR13767 (antibody, human IgG1, kappa, V domains shown, tested as IgG) VH: QVQLVQSGAEVKKPGESLKISCKGSGYSFTTSWVAWVRQMPGKGLEWMGIIYPGQSDTIYSPSFQGQVTISADKSISTAYLQWSSLKASDTAMYYCARVHIIQPPSAWSYNAMDVWGQGTLVTVSS VL: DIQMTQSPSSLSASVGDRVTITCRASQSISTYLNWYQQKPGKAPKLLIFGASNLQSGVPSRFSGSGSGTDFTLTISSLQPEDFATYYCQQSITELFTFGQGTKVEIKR = 92

Please fill in: SK-Br-3 pAkt (S473) IC50 reported for MOR13759 (antibody, human IgG1, kappa, V domains shown, tested as IgG) VH: QVQLVQSGAEVKKPGESLKISCKGSGYSFTTTWVAWVRQMPGKGLEWMGIIYPGLSDTIYSPSFQGQVTISADKSISTAYLQWSSLKASDTAMYYCARVHIIQPPSAWSYNAMDVWGQGTLVTVSS VL: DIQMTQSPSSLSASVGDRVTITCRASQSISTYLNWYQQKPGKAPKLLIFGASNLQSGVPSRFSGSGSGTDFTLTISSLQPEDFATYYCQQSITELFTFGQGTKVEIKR = 60
